# Test system: MCF7
# TEST_PROTOCOL: Cytotoxicity against human MCF-7 cells assessed as growth inhibition measured after 72 hrs by SRB assay
# Format: functional
TEST_READOUT: GI50 (µM)
Lab book: enter the figure in µM, no units written.

Study these solved cases before continuing.
[[record]]
molecule = "N#C/C(=C\\c1ccc(OCC(O)CN2CCCCCC2)cc1)c1ccc(Cl)c(Cl)c1 (racemic)"
study_system = "MCF7"
value_reported = 2.8

[[record]]
molecule = "N#C/C(=C\\c1ccc(OCC(O)CNc2ccc(Cl)cc2)cc1)c1ccc(Cl)c(Cl)c1 (racemic)"
study_system = "MCF7"
value_reported = 11

[[record]]
molecule = "CN1CCN(CC(O)COc2ccc(/C=C(\\C#N)c3ccc(Cl)c(Cl)c3)cc2)CC1 (racemic)"
study_system = "MCF7"
value_reported = 2.3

[[record]]
molecule = "N#C/C(=C\\c1ccc(OCC(O)CNc2ccccc2)cc1)c1ccc(Cl)c(Cl)c1 (racemic)"
study_system = "MCF7"
value_reported = 13

[[record]]
molecule = "CC1CCCN(CC(O)COc2ccc(/C=C(\\C#N)c3ccc(Cl)c(Cl)c3)cc2)C1 (racemic)"
study_system = "MCF7"
value_reported = 2.3


// query Give the measured GI50 of Cc1ccc(N2CCN(CC(O)COc3ccc(/C=C(\C#N)c4ccc(Cl)c(Cl)c4)cc3)CC2)cc1 (racemic) .
// result 2.3

// query Moving on to N#C/C(=C\c1ccc(OCC(O)CN2CCN(c3ccc(Br)cc3)CC2)cc1)c1ccc(Cl)c(Cl)c1 (racemic)
// result 24

----------
# System: HT-29
# TEST_PROTOCOL: Cytotoxicity against human HT29 cells assessed as growth inhibition measured after 72 hrs by SRB assay
# Assay type: functional
Response field label takes class 1 when GI50 is strictly below 1 µM and class 0 in all other cases.

[[record]]
compound = "CN(C)CC(O)COc1ccc(/C=C(\\C#N)c2ccc(Cl)c(Cl)c2)cc1 (racemic)"
study_system = "HT-29"
assigned_class = "class 1"

[[record]]
compound = "CC(=O)N1CCN(CC(O)COc2ccc(/C=C(\\C#N)c3ccc(Cl)c(Cl)c3)cc2)CC1 (racemic)"
study_system = "HT-29"
assigned_class = "class 0"

[[record]]
compound = "N#C/C(=C\\c1ccc(OCC(O)CNc2ccc(Cl)cc2)cc1)c1ccc(Cl)c(Cl)c1 (racemic)"
study_system = "HT-29"
assigned_class = "class 0"

[[record]]
compound = "N#C/C(=C\\c1ccc(OCC(O)CNC2CCCCC2)cc1)c1ccc(Cl)c(Cl)c1 (racemic)"
study_system = "HT-29"
assigned_class = "class 0"

[[record]]
compound = "N#C/C(=C\\c1ccc(OCC(O)CN2CCCC2)cc1)c1ccc(Cl)c(Cl)c1 (racemic)"
study_system = "HT-29"
assigned_class = "class 0"

[[record]]
compound = "N#C/C(=C\\c1ccc(OCC(O)CN2CCC(c3ccccc3)CC2)cc1)c1ccc(Cl)c(Cl)c1 (racemic)"
study_system = "HT-29"
assigned_class = "class 0"

[[record]]
compound = "Cc1ccc(CN2CCN(CC(O)COc3ccc(/C=C(\\C#N)c4ccc(Cl)c(Cl)c4)cc3)CC2)cc1 (racemic)"
study_system = "HT-29"
assigned_class = "class 0"

[[record]]
compound = "N#C/C(=C\\c1ccc(OCC(O)CN2CCCCCC2)cc1)c1ccc(Cl)c(Cl)c1 (racemic)"
study_system = "HT-29"
assigned_class = "class 0"

[[record]]
compound = "N#C/C(=C\\c1ccc(OCC(O)CN2CCN(c3ccccc3)CC2)cc1)c1ccc(Cl)c(Cl)c1 (racemic)"
study_system = "HT-29"
assigned_class = "class 0"

[[record]]
compound = "N#C/C(=C\\c1ccc(OCC(O)CNC2C3CC4CC(C3)CC2C4)cc1)c1ccc(Cl)c(Cl)c1 (racemic)"
study_system = "HT-29"
assigned_class = "class 0"


// query I'd appreciate it if you could check whether N#C/C(=C\c1ccc(OCC(O)CN2CCN(c3ccccc3F)CC2)cc1)c1ccc(Cl)c(Cl)c1 (racemic) has GI50 smaller than 1 µM.
// result class 0

// query Field entry: CC1CCCCN1CC(O)COc1ccc(/C=C(\C#N)c2ccc(Cl)c(Cl)c2)cc1 (racemic)
// result class 1

# credit: ChEMBL document CHEMBL4732034
